# target.system: 4'-phosphopantetheinyl transferase Sfp (Bacillus subtilis (strain 168))
# measurement.description: qHTS Assay for Inhibitos of Bacillus subtilis Sfp phosphopantetheinyl transferase (PPTase): Chemistry Optimization Followup
# condition.info: purified Sfp PPTase enzyme activity
The list shows a part of the results. Results filed as inconclusive are left out. Activity calls are given as the source filed them. The call rests on the fitted dose curve; in most records, active means well fitted inhibition curve with a large enough effect; inconclusive means small, poorly fitted or top-dose-only effect; inactive means no such curve, though single readings can be large or run the other way.
test.readout: Potency

Known Potency results, listed for orientation:
>  <compound.structure.string>
Cc1cc(C)nc(NC(=S)N2CCN(c3ccc(Cl)cc3F)CC2)c1

>  <target.system>
4'-phosphopantetheinyl transferase Sfp (Bacillus subtilis (strain 168))

>  <test.readout>
Potency

>  <recorded.value>
1870 nM (active)

$$$$
>  <compound.structure.string>
Cc1cc(C)nc(NC(=S)N2CCN(c3cccc(C#N)c3)CC2)c1

>  <target.system>
4'-phosphopantetheinyl transferase Sfp (Bacillus subtilis (strain 168))

>  <test.readout>
Potency

>  <recorded.value>
5910 nM (active)

$$$$
>  <compound.structure.string>
Cc1ccc(N2CCN(C(=S)Nc3cc(C)ccn3)CC2)cc1

>  <target.system>
4'-phosphopantetheinyl transferase Sfp (Bacillus subtilis (strain 168))

>  <test.readout>
Potency

>  <recorded.value>
6630 nM (active)

$$$$
>  <compound.structure.string>
COc1ccnc(NC(=S)N2CCN(c3ncc(C(F)(F)F)cc3Cl)CC2)c1

>  <target.system>
4'-phosphopantetheinyl transferase Sfp (Bacillus subtilis (strain 168))

>  <test.readout>
Potency

>  <recorded.value>
2640 nM (active)

$$$$

Q. Which Potency is reported for this compound? Cc1cc(C)nc(NC(=S)N2CCN(c3cccc(C(F)(F)F)c3)CC2)c1
A. 1670 nM (active)

Just for reference, PubChem BioAssay AID540350 is where these values come from.
